molecular target: c-Met (cytoplasmic domain) (Homo sapiens); construct: 10 ng/mL c-Met (cytoplasmic domain, Invitrogen Corporation #PV3143); purchased Invitrogen Corporation PV3143; assay: c-Met Kinase Assay (same methods as for ALK, with modifications); format: biochemical; conditions: c-Met kinase inhibition, 1 μM ATP; read-out: cMet Activity
endpoint: IC50

Some entries whose results are on file:
CNC(=O)c1scc(C)c1Nc1nc(Nc2ccc3c(c2)CN(C)C(=O)CC3)ncc1Cl | < 0.1 µM
CN1C(=O)OCCc2cc(Nc3ncc(Cl)c(Nc4cccc5c4OC(F)(F)O5)n3)ccc21 | 1 to 10 µM
C#CCNC(=O)c1cccc(F)c1Nc1nc(Nc2ccc3c(c2)N(C(=O)CN2CCCC2)CCCC3(C)C)ncc1Cl | 0.1 to 1 µM
O=C1CCCc2ccc(Nc3ncc(Cl)c(Nc4c(F)cccc4C(=O)NCC4CC4)n3)cc2N1 | 1 to 10 µM

stdin: Can you look up the measured IC50 of COc1cc2c(cc1Nc1ncc(Cl)c(Nc3ccc(N4CCOCC4)cc3OC)n1)C(C)(C)CCC(=O)N2 for me?
stdout: > 10 µM

stdin: Dear colleague, I am looking for the recorded IC50 of the following compound: COCCN1C(=O)CCC(C)(C)c2ccc(Nc3ncc(Cl)c(Nc4ccc(N5CCOCC5)cc4OC)n3)cc21
stdout: 1 to 10 µM

stdin: For the compound CNC(=O)c1cccc(F)c1Nc1nc(Nc2ccc3c(c2)CCCC(=O)N3CCOC)ncc1Br , what IC50 is on record?
stdout: < 0.1 µM

====

Quick list: pIC50 per entry.
Target: c-Met (cytoplasmic domain) (Homo sapiens, UniProt P08581)
Construct: 10 ng/mL c-Met (cytoplasmic domain, Invitrogen Corporation #PV3143); purchased Invitrogen Corporation PV3143
Sequence (P08581 956-1390 limits assumed): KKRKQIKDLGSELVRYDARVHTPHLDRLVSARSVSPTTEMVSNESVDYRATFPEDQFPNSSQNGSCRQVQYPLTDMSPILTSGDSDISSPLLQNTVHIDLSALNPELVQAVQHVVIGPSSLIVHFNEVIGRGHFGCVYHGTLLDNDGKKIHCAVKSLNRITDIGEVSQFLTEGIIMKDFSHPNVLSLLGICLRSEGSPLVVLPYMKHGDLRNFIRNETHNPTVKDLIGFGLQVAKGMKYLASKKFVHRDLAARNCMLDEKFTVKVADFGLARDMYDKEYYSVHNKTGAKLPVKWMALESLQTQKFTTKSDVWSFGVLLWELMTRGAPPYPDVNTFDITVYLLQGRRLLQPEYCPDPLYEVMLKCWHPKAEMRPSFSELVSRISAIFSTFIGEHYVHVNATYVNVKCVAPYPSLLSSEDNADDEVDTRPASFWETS
Assay: c-Met Kinase Assay (same methods as for ALK, with modifications)
Format: biochemical
Details: c-Met kinase inhibition, 1 μM ATP (Km level); read-out: cMet Activity
Protocol: Briefly, each 96-well plate was coated with 100 μL/well of 10 μg/mL substrate (phospholipase C-γ) in Tris-buffered saline (TBS). […] The reaction was initiated by adding enzyme (30 ng/ml ALK) and was allowed to proceed at 37° C. for 15 minutes. Detection of the phosphorylated product was performed by adding 100 μl/well of Eu-N1 labeled PT66 antibody (Perkin Elmer # AD0041). Data analysis was performed using ActivityBase (IDBS, Guilford, UK). […]
pIC50: −log10 of the molar value.

Consider the reported pIC50 for these compounds:
CCN1CCc2ccc(Nc3ncc(Cl)c(NC(C)(C)CNS(C)(=O)=O)n3)cc2CC1 [Example 307] | < 5.00
CCN1CC2CCC(C1)c1cc(Nc3ncc(Cl)c(Nc4ccccc4S(=O)(=O)NC)n3)ccc12 (centres unmarked) [Example 272] | 6.00 to 7.00
CCN1CCc2ccc(Nc3ncc(Cl)c(NC4CCCCNC4=O)n3)cc2CC1 (centres unmarked) [Example 166] | 5.00 to 6.00
CCS(=O)(=O)N[C@@H]1CCCC[C@H]1Nc1nc(Nc2ccc3c(c2)CCN(CCOC)CC3)ncc1Cl [Example 453] | 5.00 to 6.00
CNC(=O)c1ccccc1Nc1nc(Nc2ccc3c(c2)C2CCC(C3)N2)ncc1Cl (centres unmarked) [Example 79] | > 7.00

stdin: What value of measured pIC50 is listed for CCN1CCc2ccc(Nc3ncc(Cl)c(NCCC(=O)NC)n3)cc2CC1 [Example 211] ?
stdout: 5.00 to 6.00

stdin: Tell me the measured pIC50 of CS(=O)(=O)N[C@@H]1CCCC[C@H]1Nc1nc(Nc2ccc3c(c2)C2CCC3CN(S(C)(=O)=O)C2)ncc1Cl (some centres unmarked) [Example 294] , please.
stdout: 6.00 to 7.00

stdin: Suppose we examine the compound CNC(=O)c1ccccc1Nc1nc(Nc2ccc3c(c2)N(C)CCN(CCOC)C3)ncc1Cl [Example 484] ; what pIC50 value has been reported?
stdout: > 7.00

stdin: Which pIC50 is reported for this compound? CCN1C(=O)CCCc2c1ccc(Nc1ncc(Cl)c(N[C@@H]3CCCC[C@H]3NS(C)(=O)=O)n1)c2OC [Example 120]
stdout: < 5.00

stdin: Which measured pIC50 value corresponds to CNC(=O)c1ccccc1Nc1nc(Nc2cc3c(cc2OC)CC(=O)NCC3)ncc1Cl [Example 264] ?
stdout: 5.00 to 6.00

stdin: Give its pIC50 value. Item: CNC(=O)c1ccccc1Nc1nc(Nc2c(OC)ccc3c2C(=O)N(C)CCC3)ncc1Cl [Example 114]
stdout: < 5.00

====

Here, each record is paired with measured IC50 data.
molecular target: c-Met (cytoplasmic domain) (Homo sapiens, UniProt P08581); construct: 10 ng/mL c-Met (cytoplasmic domain, Invitrogen Corporation #PV3143); purchased Invitrogen Corporation PV3143; assay: c-Met Kinase Assay (same methods as for ALK, with modifications); format: biochemical; details: c-Met kinase inhibition, 1 μM ATP; read-out: cMet Activity

Worked cases, IC50 given:
COCC(=O)NC1CC(C)(C)c2ccc(Nc3ncc(Cl)c(Nc4c(F)cccc4C(=O)NCC#N)n3)cc2NC1=O (stereo not shown) | < 100 nM
COc1cc2c(cc1Nc1ncc(Cl)c(N[C@@H]3CCCC[C@H]3NS(C)(=O)=O)n1)CCN(CCO)CC2 | > 10000 nM
CNC(=O)c1cccc(F)c1Nc1nc(Nc2ccc3c(c2)N(C(C)C)CCCC3(C)C)ncc1Cl | 100 to 1000 nM
COc1cc(N2CCOCC2)ccc1Nc1nc(Nc2ccc3c(c2)N(C(C)=O)CCCC3(C)C)ncc1Cl | 1000 to 10000 nM
CCNc1nnc(-c2ccccc2Nc2nc(Nc3ccc4c(c3)CCOC(=O)N4C)ncc2Cl)o1 | 100 to 1000 nM

stdin: # input molecule: COc1cc2c(cc1Nc1ncc(Cl)c(N[C@@H]3CCCC[C@H]3NS(C)(=O)=O)n1)NC(=O)CN(C(C)=O)C2 ; wanted: its IC50
stdout: > 10000 nM

stdin: Could you share which IC50 value was measured for CCN1C(=O)OCCc2cc(Nc3ncc(Cl)c(Nc4c(F)cccc4C(=O)NC)n3)ccc21 ?
stdout: < 100 nM

stdin: Suppose we examine the molecule CN1C(=O)OCCc2cc(Nc3ncc(Cl)c(Nc4ccccc4-c4cc[nH]n4)n3)ccc21 ; what IC50 value has been reported?
stdout: 1000 to 10000 nM

stdin: Need IC50, item CCN1CCCC(C)(C)c2ccc(Nc3ncc(Cl)c(N[C@H]4[C@@H](C(N)=O)[C@@H]5C=C[C@H]4C5)n3)cc21
stdout: 1000 to 10000 nM

stdin: Name the recorded IC50 for CNC(=O)c1cccc(Br)c1Nc1nc(Nc2ccc3c(c2)CCOC(=O)N3C)ncc1Cl .
stdout: < 100 nM

====

molecular target: c-Met (cytoplasmic domain) (Homo sapiens, UniProt P08581); construct: 10 ng/mL c-Met (cytoplasmic domain, Invitrogen Corporation #PV3143); purchased Invitrogen Corporation PV3143; assay: c-Met Kinase Assay (same methods as for ALK, with modifications); format: biochemical; details: 1 μM ATP (Km level), 10 ng/mL c-Met; read-out: cMet Activity (c-Met kinase inhibition, IC50 class)
endpoint: IC50

Look over these answered cases.
COc1cc2c(cc1Nc1ncc(Cl)c(N[C@@H]3CCCC[C@H]3NS(C)(=O)=O)n1)CCN(C(=O)CN(C)C)CC2 [Example 1125] | > 10 µM
COc1cc(N(C)C)ccc1Nc1nc(Nc2ccc3c(c2)C(C)(C)CCC(=O)N3C)ncc1Cl [Example 1342] | 1 to 10 µM
CCNC(=O)c1ccccc1Nc1nc(Nc2cc3c(cc2OC)CCN(CC(=O)NC)CC3)ncc1Cl [Example 1115] | 1 to 10 µM

stdin: Need IC50, item CN1C(=O)CCCc2cc(Nc3ncc(Cl)c(Nc4c(F)cccc4C(=O)NCC#N)n3)ccc21 [Example 1045]
stdout: < 0.1 µM

stdin: Quick check: IC50 of CNC(=O)c1ccc(Nc2nc(Nc3cc4c(cc3OC)CCN(CC(=O)N(C)C)CC4)ncc2Cl)c(OC)c1 [Example 1176] ?
stdout: > 10 µM

stdin: What value of IC50 has been recorded for this entry: COCCOc1ccc(Nc2nc(Nc3cc4c(cc3OC)CCN(Cc3ncco3)CC4)ncc2Cl)c(OC)c1 [Example 1174]
stdout: > 10 µM

stdin: Request the reported IC50 associated with COCCN1CCc2ccc(Nc3ncc(Cl)c(N[C@@H]4CCC[C@H](N(CC#N)S(C)(=O)=O)C4)n3)cc2CC1 (relative stereo) [Example 1386]
stdout: 1 to 10 µM

stdin: Fill in: IC50 of COCCN(C)S(=O)(=O)c1ccccc1Nc1nc(Nc2cc3c(cc2OC)CCN(CC(=O)N(C)C)CC3)ncc1Cl [Example 1184] is ___
stdout: > 10 µM

====

target: c-Met (cytoplasmic domain) (Homo sapiens, UniProt P08581); construct: 10 ng/mL c-Met (cytoplasmic domain, Invitrogen Corporation #PV3143); purchased Invitrogen Corporation PV3143; assay: c-Met Kinase Assay (same methods as for ALK, with modifications); type: biochemical; conditions: 1 μM ATP (Km level), 10 ng/mL c-Met; read-out: cMet Activity (c-Met kinase inhibition, IC50 class)
# reported IC50; entries follow

COCCN1CCc2ccc(Nc3ncc(Cl)c(Nc4c(C)cccc4C(=O)NCC#N)n3)cc2CC1 | 100 to 1000 nM
CNC(=O)CN1CCc2cc(Nc3ncc(Cl)c(Nc4ccc(N5CCOCC5)cc4OC)n3)c(OC)cc2CC1 | > 10000 nM
CCN1C(=O)C(N)CCc2c1ccc(Nc1ncc(Cl)c(Nc3ccccc3S(=O)(=O)N(C)C)n1)c2OC (centres unmarked) | > 10000 nM
CNC(=O)c1cccc(F)c1Nc1nc(Nc2ccc3c(c2)-n2cccc2C=CO3)ncc1Cl | < 100 nM
COc1cc2c(cc1Nc1ncc(Cl)c(N[C@H]3[C@@H](C(N)=O)[C@@H]4C=C[C@H]3C4)n1)C(C)(C)CCC(=O)N2C | > 10000 nM

Consider the record given below.
stdin: Entry under review: C#CCNC(=O)c1cccc(F)c1Nc1nc(Nc2ccc3c(c2)NC(=O)C(NC(=O)C(F)(F)F)CC3(C)C)ncc1Cl (centres unmarked) . Reported IC50?
stdout: < 100 nM
